Quick reference: % degradation in MV4-11 cells, 0.3 µM, METTL14 of the listed items.
# target.under.test: METTL14 (Homo sapiens)
# Construct: Following treatment, total cellular proteins were extracted using RIPA buffer; endogenous in cells; host or cells: MV4-11 (MV4.11) human AML cells, ATCC
# Sequence (Q9HCE5 whole entry): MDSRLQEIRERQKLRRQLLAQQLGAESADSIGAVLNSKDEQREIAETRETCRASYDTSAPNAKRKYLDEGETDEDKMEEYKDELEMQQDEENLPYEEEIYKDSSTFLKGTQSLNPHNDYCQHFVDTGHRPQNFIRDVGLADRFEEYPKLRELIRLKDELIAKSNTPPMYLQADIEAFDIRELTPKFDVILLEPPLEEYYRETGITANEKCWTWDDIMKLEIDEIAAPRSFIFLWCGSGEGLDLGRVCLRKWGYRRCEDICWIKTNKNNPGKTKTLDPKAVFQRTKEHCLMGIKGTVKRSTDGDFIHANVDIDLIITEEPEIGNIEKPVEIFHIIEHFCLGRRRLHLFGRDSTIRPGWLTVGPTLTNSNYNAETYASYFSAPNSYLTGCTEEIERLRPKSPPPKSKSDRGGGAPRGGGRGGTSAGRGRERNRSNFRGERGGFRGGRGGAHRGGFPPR
# Sequence (Q86U44 2-580 partner): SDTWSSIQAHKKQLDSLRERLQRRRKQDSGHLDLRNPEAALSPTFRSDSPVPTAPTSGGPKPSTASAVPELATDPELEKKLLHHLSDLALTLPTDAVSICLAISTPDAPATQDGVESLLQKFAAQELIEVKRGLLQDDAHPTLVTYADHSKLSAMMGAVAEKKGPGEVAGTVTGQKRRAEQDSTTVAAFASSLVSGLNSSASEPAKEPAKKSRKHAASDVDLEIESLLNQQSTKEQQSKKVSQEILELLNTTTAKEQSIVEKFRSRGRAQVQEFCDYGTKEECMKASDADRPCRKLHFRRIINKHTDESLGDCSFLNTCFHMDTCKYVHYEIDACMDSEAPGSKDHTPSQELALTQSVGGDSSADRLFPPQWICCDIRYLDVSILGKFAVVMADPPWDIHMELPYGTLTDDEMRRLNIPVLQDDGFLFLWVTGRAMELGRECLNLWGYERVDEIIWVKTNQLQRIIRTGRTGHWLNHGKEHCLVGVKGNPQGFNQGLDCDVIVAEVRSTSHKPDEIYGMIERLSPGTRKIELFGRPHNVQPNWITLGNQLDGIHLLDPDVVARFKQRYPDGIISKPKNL
# method.description: Immunoblotting (Western blot) degradation of METTL14 in MV4-11 cells
# Type: cell-based
# run.conditions: MV4-11 cells, 0.3 µM, 24 h, immunoblotting
endpoint: % degradation in MV4-11 cells, 0.3 µM, METTL14

molecule	measured.result
CNc1cc(N2CCC3(CC2)CN(c2cc(F)c(CN4CCC(C)(C(=O)NCCCCCCNc5cccc6c5C(=O)N(C5CCC(=O)NC5=O)C6=O)CC4)cc2F)CC(=O)N3)ncn1 (stereo not shown)	20%
CNc1cc(N2CCC3(CC2)CN(c2cc(F)c(CN4CCC(C)(C(=O)NCCCCNc5cccc6c5C(=O)N(C5CCC(=O)NC5=O)C6=O)CC4)cc2F)CC(=O)N3)ncn1 (stereo not shown)	8%
CNc1cc(N2CCC3(CC2)CN(c2cc(F)c(CN4CCC(C)(C(=O)NCCCCCCCCNc5cccc6c5C(=O)N(C5CCC(=O)NC5=O)C6=O)CC4)cc2F)CC(=O)N3)ncn1 (stereo not shown)	20%
CNc1cc(N2CCC3(CC2)CN(c2cc(F)c(CN4CCC(C)(C(=O)NCCCCCCCCCCNc5cccc6c5C(=O)N(C5CCC(=O)NC5=O)C6=O)CC4)cc2F)CC(=O)N3)ncn1 (stereo not shown)	34%

----------
# target.under.test: METTL3 (Homo sapiens, UniProt Q86U44)
# method.description: Immunoblotting (Western blot) degradation of METTL3 in MV4-11 cells
# Assay type: cell-based
# Design: Following treatment, total cellular proteins were extracted using RIPA buffer; endogenous in cells; host or cells: MV4-11 (MV4.11) human AML cells, ATCC
# run.conditions: MV4-11 cells, 0.3 µM, 24 h, immunoblotting; nd = no degradation
Quick reference: % reduction in MV4-11 cells, 0.3 µM, METTL3 of the listed items.
endpoint: % reduction in MV4-11 cells, 0.3 µM, METTL3 (%)

molecule	value.units	measured.result
CC1(C)CCN(Cc2cc(F)c(N3CC(=O)NC4(CCN(c5cc(NCCCCCC(=O)N6CCN(c7ccc8c(c7)C(=O)N(C7CCC(=O)NC7=O)C8=O)CC6)ncn5)CC4)C3)cc2F)CC1 (centres unmarked) [Compound 4b]	%	45
CC1(C)CCN(Cc2cc(F)c(N3CC(=O)NC4(CCN(c5cc(NCCCCCCC(=O)N6CCN(c7ccc8c(c7)CN(C7CCC(=O)NC7=O)C8=O)CC6)ncn5)CC4)C3)cc2F)CC1 (centres unmarked) [Compound 4g]	%	9
CC1(C)CCN(Cc2cc(F)c(N3CC(=O)NC4(CCN(c5cc(NCCCCCCCC(=O)N6CCN(c7ccc8c(c7)C(=O)N(C7CCC(=O)NC7=O)C8=O)CC6)ncn5)CC4)C3)cc2F)CC1 (centres unmarked) [Compound 4d]	%	52
CC1(C)CCN(Cc2cc(F)c(N3CC(=O)NC4(CCN(c5cc(NCCCCCCCCCC(=O)N6CCN(c7ccc8c(c7)CN(C7CCC(=O)NC7=O)C8=O)CC6)ncn5)CC4)C3)cc2F)CC1 (centres unmarked) [Compound 4j]	%	58
CC1(C)CCN(Cc2cc(F)c(N3CC(=O)NC4(CCN(c5cc(NCCCCCCCC(=O)N6CCN(c7ccc8c(c7)CN(C7CCC(=O)NC7=O)C8=O)CC6)ncn5)CC4)C3)cc2F)CC1 (centres unmarked) [Compound 4h]	%	46
